Reference source: paper PMC8774231

# Experimental Target: cytochrome P450 OleP (Streptomyces antibioticus, UniProt Q59819, E89Y)
# Construct: recombinant His-tagged OleP mutants from pET28b(+)-OleP, expressed in E. coli BL21(DE3), monomer, heme-containing
# Sequence (Q59819 1-407 E89Y): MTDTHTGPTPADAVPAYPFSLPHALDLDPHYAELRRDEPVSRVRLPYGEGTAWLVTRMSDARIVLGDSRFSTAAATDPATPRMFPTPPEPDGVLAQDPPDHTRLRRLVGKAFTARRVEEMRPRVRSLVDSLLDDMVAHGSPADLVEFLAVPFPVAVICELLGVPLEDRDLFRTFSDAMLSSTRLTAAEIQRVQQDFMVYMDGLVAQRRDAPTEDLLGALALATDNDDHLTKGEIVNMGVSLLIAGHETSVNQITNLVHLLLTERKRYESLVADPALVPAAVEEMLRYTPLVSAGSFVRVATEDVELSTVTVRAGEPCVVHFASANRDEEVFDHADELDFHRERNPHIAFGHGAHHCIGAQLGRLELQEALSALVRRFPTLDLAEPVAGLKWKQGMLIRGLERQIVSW
# Assay Notes: UV-visible spectral titration, difference spectra, quadratic fit
Quantity Kind: Kd (µM)

• CC[C@H]1OC(=O)[C@H](C)[C@@H](O)[C@H](C)[C@@H](O)[C@@H](C)C[C@@H](C)C(=O)[C@H](C)[C@@H](O)[C@H]1C [6DEB] = 8.5

====

# Experimental Target: cytochrome P450 OleP (Streptomyces antibioticus, UniProt Q59819, G92W)
# Construct: recombinant His-tagged OleP mutants from pET28b(+)-OleP, expressed in E. coli BL21(DE3), monomer, heme-containing
# Assay Notes: UV-visible spectral titration, difference spectra, quadratic fit
pKd: −log10 of the molar value.
Quantity Kind: pKd

• CC[C@H]1OC(=O)[C@H](C)[C@@H](O)[C@H](C)[C@@H](O)[C@@H](C)C[C@@H](C)C(=O)[C@H](C)[C@@H](O)[C@H]1C = 5.92
